A collection of compounds and their measured Solubility
- test.summary: Determination of solubility
- Assay type: physicochemical
- settings: aqueous buffer at pH 7.4
Kindly provide the numeric value in µg/mL only, without the unit symbol.

// below: answered compounds
compound="CN(C)CCOc1ccc(-c2ccccc2)cc1/C=C/C(=O)c1cccc(CN(C)C)c1 [Compound C037]" reported=1500
compound="Cc1cc(C)cc(-c2ccc(OCCN(C)C)c(/C=C/C(=O)c3cccc(NCCN(C)C)c3)c2)c1 [Compound C075]" reported=4100

Task: Would you mind telling me what Solubility value was observed for COc1ccc(C(=O)C=Cc2cc(-c3ccccc3Cl)ccc2OCCN(C)C)c(OC)c1OC [Compound C018] ?
Output: 1500

Task: Would you mind telling me what Solubility value was observed for Cc1ccccc1-c1ccc(OCCN(C)C)c(/C=C/C(=O)c2ccc(O)c(CN(C)C)c2)c1 [Compound C108] ?
Output: 18100

Task: Would you mind telling me what Solubility value was observed for COc1ccccc1-c1ccc(OCCN(C)C)c(/C=C/C(=O)c2ccccc2CN(C)C)c1 [Compound C036] ?
Output: 1800

Task: Would you mind telling me what Solubility value was observed for Cc1ccccc1-c1ccc(OCCN2CCCC2)c(/C=C/C(=O)c2ccccc2CN(C)C)c1 [Compound C136] ?
Output: 5500
